ASSAY METHOD TEXT: Acute toxicity in mice, intravenous and oral (LD50)
Assay type: in vivo
TEST SETTINGS: mouse, in vivo, intravenous, read-out: Acute toxicity to mice LD 50, intravenous
I'd be grateful if you could share measured LD50 for these entries.
// return the numeric value with its unit appended

Some compounds with recorded LD50:
Query string: So what's the measured LD50 for this one? CCN(CC)CCNc1nc(N(C)Cc2ccccc2)nc(Cl)c1SC
Result string: 45 mg/kg

Query string: So what's the measured LD50 for this one? CCOC(=O)CN(C)c1nc(Cl)c(SC)c(NCCN(C(C)C)C(C)C)n1
Result string: 63 mg/kg

Query string: So what's the measured LD50 for this one? CCN(CC)CCNc1nc(N(CC)CC)nc(Cl)c1SC
Result string: 64 mg/kg

Query string: So what's the measured LD50 for this one? CCN(CC)CCNc1nc(N(C)c2ccccc2)nc(Cl)c1SC
Result string: 43 mg/kg

We now examine a further compound.
Query string: So what's the measured LD50 for this one? COc1nc(N(C)c2ccccc2)nc(NCCN(C)C)c1SC
Result string: 70 mg/kg

====

ASSAY METHOD TEXT: Acute toxicity in mice, intravenous and oral (LD50)
Type: in vivo
TEST SETTINGS: mouse, in vivo, oral, read-out: Acute toxicity to mice LD 50, orally
From the text: The acute toxicities of the compounds according to the invention have been determined CD 1 mice (Charles RIVER) by intravenous and oral methods. The LD50 calculated by the quantal cumulative method of J. J. Reed and H. Muench (Amer. J. Hyg. 1938, 27, 493) are collected in the following Table: […]
PROPERTY LABEL: LD50 (mg/kg)
One number for each entry, in mg/kg.

Query string: So what's the measured LD50 for this one? CCN(CC)CCNc1nc(N(C)c2ccccc2)nc(Cl)c1SC
Result string: 225

New cases:
Query string: So what's the measured LD50 for this one? COc1nc(N(C)c2ccccc2)nc(NCCN(C)C)c1SC
Result string: 225

====

System: isolated rabbit heart
ASSAY METHOD TEXT: Coronaro-dilatatory activity, isolated heart (Langendorff modified by Anderson)
TEST SETTINGS: dose 0.03 mg
I'd be grateful if you could share measured Increase of the coronary flow for these entries.
Numbers only, in %.

Some compounds with recorded Increase of the coronary flow:
Query string: Please provide the recorded Increase of the coronary flow for CCN(CC)CCNc1nc(N(C)c2ccccc2)nc(Cl)c1SC [Example 2] , tested on isolated rabbit heart.
Result string: 58

Query string: Please provide the recorded Increase of the coronary flow for COc1nc(N(C)c2ccccc2)nc(NCCN(C(C)C)C(C)C)c1SC [Example 24] , tested on isolated rabbit heart.
Result string: 58

Query string: Please provide the recorded Increase of the coronary flow for CSc1c(Cl)nc(N(C)c2ccc(C)cc2)nc1NCCN(C(C)C)C(C)C [Example 14] , tested on isolated rabbit heart.
Result string: 168

Query string: Please provide the recorded Increase of the coronary flow for CCN(CC)CCNc1nc(N(C)Cc2ccccc2)nc(Cl)c1SC [Example 4] , tested on isolated rabbit heart.
Result string: 41

Query string: Please provide the recorded Increase of the coronary flow for CSc1c(Cl)nc(N(C)c2ccccc2)nc1NCCN(C)C [Example 7] , tested on isolated rabbit heart.
Result string: 37

New cases:
Query string: Please provide the recorded Increase of the coronary flow for CCOC(=O)CN(C)c1nc(Cl)c(SC)c(NCCN(C(C)C)C(C)C)n1 [Example 15] , tested on isolated rabbit heart.
Result string: 44

====

I'd be grateful if you could share measured LD50 for these entries.
ASSAY METHOD TEXT: Acute toxicity in mice, intravenous and oral (LD50)
Assay type: in vivo
TEST SETTINGS: mouse, in vivo, oral, read-out: Acute toxicity to mice LD 50, orally
One number for each entry, in mg/kg.

Some molecules with recorded LD50:
Query string: So what's the measured LD50 for this one? CSc1c(Cl)nc(N(C)c2ccc(C)cc2)nc1NCCN(C(C)C)C(C)C
Result string: 900

Query string: So what's the measured LD50 for this one? CCOC(=O)CN(C)c1nc(Cl)c(SC)c(NCCN(C)C)n1
Result string: 900

Query string: So what's the measured LD50 for this one? CCN(CC)CCNc1nc(N(C)c2ccc(OC)c(OC)c2)nc(Cl)c1SC
Result string: 400

Give me LD50 for each of these molecules, listed below.
1. CSc1c(Cl)nc(N(C)c2ccccc2)nc1NCCN(C)C
2. COc1nc(N(C)Cc2ccccc2)nc(NCCN(C(C)C)C(C)C)c1SC
3. CSc1c(NCCN(C)C)nc(N(C)C)nc1OCc1cccnc1
4. CCCN(CCC)c1nc(Cl)c(SC)c(NCCN(CC)CC)n1

Result string:
[200, 600, 175, 800]

====

ASSAY METHOD TEXT: Acute toxicity in mice, intravenous and oral (LD50)
Format: in vivo
TEST SETTINGS: mouse, in vivo, intravenous, read-out: Acute toxicity to mice LD 50, intravenous
I'd be grateful if you could share measured LD50 for these entries.
Answers are plain numbers, in mg/kg.

Some compounds with recorded LD50:
Query string: So what's the measured LD50 for this one? CSc1c(Cl)nc(N(C)Cc2ccccc2)nc1NCCN(C(C)C)C(C)C
Result string: 60

Query string: So what's the measured LD50 for this one? CSc1c(NCCN(C)C)nc(N(C)C)nc1OCc1cccnc1
Result string: 22

Query string: So what's the measured LD50 for this one? CSc1c(Cl)nc(N(C)c2ccc(C)cc2)nc1NCCN(C(C)C)C(C)C
Result string: 92

Query string: So what's the measured LD50 for this one? CSc1c(Cl)nc(N(C)c2ccccc2)nc1NCCN(C)C
Result string: 80

Query string: So what's the measured LD50 for this one? COc1nc(N(C)c2ccccc2)nc(NCCN(C(C)C)C(C)C)c1SC
Result string: 22

Give me LD50 for each of these compounds, listed below.
1. CSc1c(Cl)nc(N(C)C)nc1NCCN(C)C
2. CCOC(=O)CN(C)c1nc(Cl)c(SC)c(NCCN(C)C)n1
3. CCN(CC)CCNc1nc(N(C)C)nc(Cl)c1SC
4. COc1nc(N(C)Cc2ccccc2)nc(NCCN(C(C)C)C(C)C)c1SC

Result string:
1. 57
2. 79
3. 53
4. 18.5

====

I'd be grateful if you could share measured LD50 for these entries.
ASSAY METHOD TEXT: Acute toxicity in mice, intravenous and oral (LD50)
Assay type: in vivo
TEST SETTINGS: mouse, in vivo, oral, read-out: Acute toxicity to mice LD 50, orally

Some molecules with recorded LD50:
Query string: So what's the measured LD50 for this one? CCN(CC)CCNc1nc(N(CC)CC)nc(Cl)c1SC
Result string: 225 mg/kg

Query string: So what's the measured LD50 for this one? CSc1c(Cl)nc(N(C)c2ccc(Cl)cc2)nc1NCCN(C(C)C)C(C)C
Result string: > 900 mg/kg

Query string: So what's the measured LD50 for this one? COc1ccc(N(C)c2nc(Cl)c(SC)c(NCCN(C(C)C)C(C)C)n2)cc1OC
Result string: ~600 mg/kg

Query string: So what's the measured LD50 for this one? CSc1c(Cl)nc(N2CCOCC2)nc1NCCN(C)C
Result string: 400 mg/kg

Query string: So what's the measured LD50 for this one? COc1nc(N2CCCCC2)nc(NCCN(C(C)C)C(C)C)c1SC
Result string: ~200 mg/kg

Query string: So what's the measured LD50 for this one? CSc1c(Cl)nc(N(C)Cc2ccccc2)nc1NCCN(C(C)C)C(C)C
Result string: 675 mg/kg

Give me LD50 for each of these molecules, listed below.
1. CSc1c(Cl)nc(N2CCCCC2)nc1NCCN(C(C)C)C(C)C
2. CCN(CC)CCNc1nc(N(C)c2ccc(Cl)cc2)nc(Cl)c1SC
3. CCN(CC)CCNc1nc(N(C)C)nc(Cl)c1SC
4. CCOC(=O)CN(C)c1nc(Cl)c(SC)c(NCCN(C(C)C)C(C)C)n1
5. CSc1c(Cl)nc(N(C)C)nc1NCCN(C)C

Result string:
1. > 900 mg/kg
2. 610 mg/kg
3. 200 mg/kg
4. > 900 mg/kg
5. 525 mg/kg

====

I'd be grateful if you could share measured LD50 for these entries.
ASSAY METHOD TEXT: Acute toxicity in mice, intravenous and oral (LD50)
Assay type: in vivo
TEST SETTINGS: mouse, in vivo, oral, read-out: Acute toxicity to mice LD 50, orally

Give me LD50 for each of these compounds, listed below.
1. CCCCOc1nc(N(C)Cc2ccccc2)nc(NCCN(C(C)C)C(C)C)c1SC
2. CCN(CC)CCNc1nc(N(C)Cc2ccccc2)nc(Cl)c1SC
3. CCN(CC)c1nc(Cl)c(SC)c(NCCN(C(C)C)C(C)C)n1
4. CCN(CC)CCNc1nc(N(C)c2ccc(Cl)cc2)nc(OC)c1SC
5. COc1nc(N(C)c2ccccc2)nc(NCCN(C(C)C)C(C)C)c1SC
6. CSc1c(Cl)nc(N(C)c2cccc(C(F)(F)F)c2)nc1NCCN(C(C)C)C(C)C
7. CSc1c(Cl)nc(N(C)c2ccccc2)nc1NCCN(C(C)C)C(C)C

Result string:
["~675 mg/kg", "525 mg/kg", "600 mg/kg", "~600 mg/kg", "600 mg/kg", "> 900 mg/kg", "600 mg/kg"]

Query string: So what's the measured LD50 for this one? CSc1c(Cl)nc(N(C)c2ccc(Cl)cc2)nc1NCCN1CC(C)OC(C)C1 (centres unmarked)
Result string: > 900 mg/kg
